Entries with their measured pIC50, system FGFR4 kinase (Homo sapiens):
Answers are plain numbers, as −log10 of the molar value.

Each compound below has a reported value. Please supply its pIC50.
1. C=CC(=O)Nc1ccccc1C(=O)Nc1ccc(C#Cc2ccc3c(c2)OCO3)nn1
2. C=CC(=O)Nc1ccccc1C(=O)Nc1ccc(C#Cc2cccc(OC)c2)nn1
3. C=CC(=O)Nc1ccccc1C(=O)Nc1ccc(C#Cc2ccccc2)nn1
4. C=CC(=O)Nc1ccccc1C(=O)Nc1ccc(C#Cc2ccc(OC)cc2)nn1

Resp:
1: 6.50; 2: 6.37; 3: 6.63; 4: 7.48

---

# system.tested: FGFR4 kinase (Homo sapiens)
# Sequence (P22455 22-802): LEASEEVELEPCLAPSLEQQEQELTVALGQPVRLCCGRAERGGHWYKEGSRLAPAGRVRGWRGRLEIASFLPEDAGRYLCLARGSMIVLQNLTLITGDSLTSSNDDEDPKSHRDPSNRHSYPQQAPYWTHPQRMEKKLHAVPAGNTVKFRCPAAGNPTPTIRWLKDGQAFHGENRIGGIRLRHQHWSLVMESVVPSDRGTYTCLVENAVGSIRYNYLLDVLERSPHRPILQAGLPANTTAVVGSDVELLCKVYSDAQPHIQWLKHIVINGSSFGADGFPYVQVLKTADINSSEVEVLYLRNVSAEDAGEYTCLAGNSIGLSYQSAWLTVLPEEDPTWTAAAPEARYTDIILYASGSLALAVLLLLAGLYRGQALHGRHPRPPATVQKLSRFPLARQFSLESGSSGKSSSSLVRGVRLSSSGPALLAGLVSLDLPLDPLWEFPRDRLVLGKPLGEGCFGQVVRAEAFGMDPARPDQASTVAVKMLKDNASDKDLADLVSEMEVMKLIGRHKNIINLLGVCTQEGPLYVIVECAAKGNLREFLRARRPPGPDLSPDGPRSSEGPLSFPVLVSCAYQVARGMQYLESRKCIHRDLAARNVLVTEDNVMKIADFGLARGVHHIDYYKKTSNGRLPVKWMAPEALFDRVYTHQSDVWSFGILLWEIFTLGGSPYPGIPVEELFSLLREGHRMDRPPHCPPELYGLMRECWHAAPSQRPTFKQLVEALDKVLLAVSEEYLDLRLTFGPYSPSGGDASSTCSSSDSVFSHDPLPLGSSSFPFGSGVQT
# experimental.protocol: biochemical
# Assay type: biochemical
# conditions.used: read-out: % inhibition against FGFR4 kinase
endpoint: inhibition at 1 µM (%)
Numbers only, in %.

In the examples that follow, each entry is paired with its recorded inhibition at 1 µM.
compound: C=CC(=O)Nc1ccccc1C(=O)Nc1ccc(C#Cc2ccc(OC)cc2)nn1
unit.descriptor: %
reading: 97
--
compound: C=CC(=O)Nc1ccccc1C(=O)Nc1ccc(C#Cc2cc(OC)cc(OC)c2)nn1
unit.descriptor: %
reading: 80
--
compound: C=CC(=O)Nc1ccccc1C(=O)Nc1ccc(C#Cc2ccccc2OC)nn1
unit.descriptor: %
reading: 42
--
compound: C=CC(=O)Nc1ccccc1C(=O)Nc1ccc(C#Cc2cccc(N(C)C)c2)nn1
unit.descriptor: %
reading: 59
--
compound: C=CC(=O)Nc1ccccc1C(=O)Nc1cccnc1 [2c, 2-Acrylamido-N-(pyridin-3-yl)benzamide]
unit.descriptor: %
reading: 7

Please go through the list and note inhibition at 1 µM for each compound.
1. C=CC(=O)Nc1ccccc1C(=O)Nc1ccc(C#Cc2cccnc2)nn1
2. C=CC(=O)Nc1ccccc1C(=O)Nc1ccc(Oc2cccc(OC)c2)nn1
3. C=CC(=O)Nc1ccccc1C(=O)Nc1ccc(C#Cc2ccc3c(c2)OCO3)nn1
4. C=CC(=O)Nc1ccccc1C(=O)Nc1cnccn1 [2f, 2-Acrylamido-N-(pyrazin-2-yl)benzamide]
5. C=CC(=O)Nc1ccccc1C(=O)Nc1ncccn1 [2d, 2-Acrylamido-N-(pyrimidin-2-yl)benzamide]
6. C=CC(=O)Nc1ccccc1C(=O)Nc1ccc(C#CCOC)nn1
7. C=CC(=O)Nc1ccccc1C(=O)Nc1ccc(Cl)nn1
8. C=CC(=O)Nc1ccccc1C(=O)Nc1n[nH]c2ccccc12

Resp:
[13, 7, 92, 9, 6, 47, 30, 4]

Record inhibition at 1 µM per entry; entries follow.
1. CCC(=O)Nc1ccccc1C(=O)Nc1ccc(C#Cc2ccc(OC)cc2)nn1
2. C#Cc1ccc(NC(=O)c2ccccc2NC(=O)C=C)nn1
3. C=CC(=O)N[C@H]1CCOC[C@H]1Nc1ncc2cc(-c3c(Cl)c(OC)cc(OC)c3Cl)ccc2n1 [BLU554, fisogatinib, reference compound]
4. C#Cc1ccc(NC(=O)c2ccccc2NC(=O)C=C)cn1

Resp:
1. 0
2. 49
3. 97
4. 44

Go through the list and state inhibition at 1 µM for each entry.
1. C=CC(=O)Nc1ccccc1C(=O)Nc1ccc(C#Cc2ccc(N(C)C)cc2)nn1
2. C=CC(=O)Nc1ccccc1C(=O)Nc1ccc(-c2cccc(OC)c2)nn1

Resp:
92
39
